Where do these numbers come from? They come from paper PMC9638024.

target entity: EP2 (prostaglandin E2 receptor EP2) (Homo sapiens, UniProt P43116)
Construct: FLAG-EP2 stably expressed in HEK 293 cells
Sequence (P43116 whole entry): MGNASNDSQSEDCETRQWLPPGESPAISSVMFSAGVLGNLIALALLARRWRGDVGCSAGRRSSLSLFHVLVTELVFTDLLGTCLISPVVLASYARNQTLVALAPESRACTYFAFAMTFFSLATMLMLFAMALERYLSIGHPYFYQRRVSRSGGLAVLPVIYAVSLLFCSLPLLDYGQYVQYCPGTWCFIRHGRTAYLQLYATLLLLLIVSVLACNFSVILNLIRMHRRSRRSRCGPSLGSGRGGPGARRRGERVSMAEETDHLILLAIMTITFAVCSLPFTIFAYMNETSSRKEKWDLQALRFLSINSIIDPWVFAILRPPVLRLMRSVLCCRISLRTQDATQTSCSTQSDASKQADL
method: cAMP accumulation dose-response in HEK […] cells stably expressing FLAG-EP2 (agonist)
measured property: pEC50
Expect pEC50 as a plain number equal to -log10 of the molar concentration.

**Q:** Under EP2 (prostaglandin E2 receptor EP2) (Homo sapiens, UniProt P43116): pEC50 value of CC(C)OC(=O)COc1cccc(NC(=O)c2cc(-c3cccc(F)c3)ccc2F)c1 [PGN9856i] ?
**A:** 8.68
